Procedure details: Pharmacokinetics in Cynomolgus monkeys, single subcutaneous or intravenous dose
Format: in vivo
Condition info: both sexes, cynomolgus monkey, plasma, iv, 187 nmol/kg, single intravenous dose 187 nmol/kg, Mean
*1 amine or outer side, *2 acyl side, *3 side chain or, on linkers, in order; H or OH if unused. Side-chain parts run from the residue outwards. [ ]: non-standard residue; d: D form. The star is where a group is joined. C20 diacid = O=C(O)CCCCCCCCCCCCCCCCCCC(=O)*; γGlu = O=C(O)[C@H](CCC(=O)[*:2])N[*:1]; εLys = N[C@@H](CCCCN[*:1])C(=O)[*:2]; αMeL = CC(C)C[C@](C)(N)C(=O)O; AEEA = NCCOCCOCC(=O)O; Aib = CC(C)(N)C(=O)O

Substance: Ac-GSPSIVTS[αMeL]DVPT[Aib][αMeL]LQKILEQERAEKARQQAK([γGlu-AEEA-εLys-C20 diacid])EAAEILAQV-NH2 [SEQ ID NO: 1]
Unit spec: mL/day/kg
clearance: 14.7

====

Procedure details: Pharmacokinetics in Cynomolgus monkeys, single subcutaneous or intravenous dose
Type: in vivo
Condition info: both sexes, cynomolgus monkey, plasma, iv, 187 nmol/kg, single intravenous dose 187 nmol/kg, individual animal
*1 amine or outer side, *2 acyl side, *3 side chain or, on linkers, in order; H or OH if unused. Side-chain parts run from the residue outwards. [ ]: non-standard residue; d: D form. The star is where a group is joined. C20 diacid = O=C(O)CCCCCCCCCCCCCCCCCCC(=O)*; γGlu = O=C(O)[C@H](CCC(=O)[*:2])N[*:1]; εLys = N[C@@H](CCCCN[*:1])C(=O)[*:2]; αMeL = CC(C)C[C@](C)(N)C(=O)O; AEEA = NCCOCCOCC(=O)O; Aib = CC(C)(N)C(=O)O

Substance: Ac-GSPSIVTS[αMeL]DVPT[Aib][αMeL]LQKILEQERAEKARQQAK([γGlu-AEEA-εLys-C20 diacid])EAAEILAQV-NH2 [SEQ ID NO: 1]
half-life: 3.83 days

====

Procedure details: Pharmacokinetics in Cynomolgus monkeys, single subcutaneous or intravenous dose
Type: in vivo
Condition info: both sexes, cynomolgus monkey, plasma, sc, single subcutaneous dose 190 nmol/kg, Mean, read-out: AUC0-inf
*1 amine or outer side, *2 acyl side, *3 side chain or, on linkers, in order; H or OH if unused. [ ]: non-standard residue; d: D form. The star is where a group is joined. C20 diacid = O=C(O)CCCCCCCCCCCCCCCCCCC(=O)*; γGlu = O=C(O)[C@H](CCC(=O)[*:2])N[*:1]; εLys = N[C@@H](CCCCN[*:1])C(=O)[*:2]; αMeL = CC(C)C[C@](C)(N)C(=O)O; AEEA = NCCOCCOCC(=O)O; Aib = CC(C)(N)C(=O)O

Substance: {C20 diacid-εLys-AEEA-γGlu}-GSPSIVTS[αMeL]DVPT[Aib][αMeL]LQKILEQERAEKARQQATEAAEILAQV-NH2 [SEQ ID NO: 25]
AUC0-inf [µM·h]: 458

====

Procedure details: Pharmacokinetics in Sprague Dawley rats, single subcutaneous or intravenous dose (incl. 10, 30, 100 nmol/kg dose response)
Format: in vivo
Condition info: male, Sprague Dawley, rat, plasma, sc, 190 nmol/kg, single subcutaneous dose 190 nmol/kg, mean, read-out: Tmax
*1 amine or outer side, *2 acyl side, *3 side chain or, on linkers, in order; H or OH if unused. [ ]: non-standard residue; d: D form. The star is where a group is joined. C20 diacid = O=C(O)CCCCCCCCCCCCCCCCCCC(=O)*; γGlu = O=C(O)[C@H](CCC(=O)[*:2])N[*:1]; εLys = N[C@@H](CCCCN[*:1])C(=O)[*:2]; αMeL = CC(C)C[C@](C)(N)C(=O)O; AEEA = NCCOCCOCC(=O)O; Aib = CC(C)(N)C(=O)O

Substance: {C20 diacid-εLys-AEEA-γGlu}-GSPSIVTS[αMeL]DVPT[Aib][αMeL]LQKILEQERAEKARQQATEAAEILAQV-NH2 [SEQ ID NO: 25]
Unit spec: h
Tmax: 24

====

Procedure details: Pharmacokinetics in Cynomolgus monkeys, single subcutaneous or intravenous dose
Assay type: in vivo
Condition info: both sexes, cynomolgus monkey, plasma, sc, 190 nmol/kg, single subcutaneous dose 190 nmol/kg, Mean, read-out: Tmax
*1 amine or outer side, *2 acyl side, *3 side chain or, on linkers, in order; H or OH if unused. [ ]: non-standard residue; d: D form. The star is where a group is joined. C20 diacid = O=C(O)CCCCCCCCCCCCCCCCCCC(=O)*; γGlu = O=C(O)[C@H](CCC(=O)[*:2])N[*:1]; εLys = N[C@@H](CCCCN[*:1])C(=O)[*:2]; αMeL = CC(C)C[C@](C)(N)C(=O)O; AEEA = NCCOCCOCC(=O)O; Aib = CC(C)(N)C(=O)O

Substance: {C20 diacid-εLys-AEEA-γGlu}-GSPSIVTS[αMeL]DVPT[Aib][αMeL]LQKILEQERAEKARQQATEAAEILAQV-NH2 [SEQ ID NO: 25]
Unit spec: h
Tmax: 24

====

Procedure details: Pharmacokinetics in Cynomolgus monkeys, single subcutaneous or intravenous dose
Type: in vivo
Condition info: both sexes, cynomolgus monkey, plasma, single intravenous dose 187 nmol/kg, Mean, read-out: AUC0-inf
Protocol: Plasma concentrations of compounds were determined by LC/MS methods. For each assay, the compound and an internal standard (IS), were extracted from 100% mouse, rat, pig, or monkey plasma (70 μL) using Isopropanol-Methanol. Two distinct layers were formed upon centrifugation with the compound and the IS located in the supernatant layer. […] The column effluent was directed into a Thermo Fisher Scientific Orbitrap (Exploris 240) mass spectrometer for detection and quantitation. […]
*1 amine or outer side, *2 acyl side, *3 side chain or, on linkers, in order; H or OH if unused. Side-chain parts run from the residue outwards. [ ]: non-standard residue; d: D form. The star is where a group is joined. C20 diacid = O=C(O)CCCCCCCCCCCCCCCCCCC(=O)*; γGlu = O=C(O)[C@H](CCC(=O)[*:2])N[*:1]; εLys = N[C@@H](CCCCN[*:1])C(=O)[*:2]; αMeL = CC(C)C[C@](C)(N)C(=O)O; AEEA = NCCOCCOCC(=O)O; Aib = CC(C)(N)C(=O)O

Substance: Ac-GSPSIVTS[αMeL]DVPT[Aib][αMeL]LQKILEQERAEKARQQAK([γGlu-AEEA-εLys-C20 diacid])EAAEILAQV-NH2 [SEQ ID NO: 1]
AUC0-inf: 315 µM·h

====

Procedure details: Pharmacokinetics in Sprague Dawley rats, single subcutaneous or intravenous dose (incl. 10, 30, 100 nmol/kg dose response)
Type: in vivo
Condition info: male, Sprague Dawley, rat, plasma, sc, 187 nmol/kg, single subcutaneous dose 187 nmol/kg, individual animal
*1 amine or outer side, *2 acyl side, *3 side chain or, on linkers, in order; H or OH if unused. Side-chain parts run from the residue outwards. [ ]: non-standard residue; d: D form. The star is where a group is joined. C20 diacid = O=C(O)CCCCCCCCCCCCCCCCCCC(=O)*; γGlu = O=C(O)[C@H](CCC(=O)[*:2])N[*:1]; εLys = N[C@@H](CCCCN[*:1])C(=O)[*:2]; αMeL = CC(C)C[C@](C)(N)C(=O)O; AEEA = NCCOCCOCC(=O)O; Aib = CC(C)(N)C(=O)O

Substance: Ac-GSPSIVTS[αMeL]DVPT[Aib][αMeL]LQKILEQERAEKARQQAK([γGlu-AEEA-εLys-C20 diacid])EAAEILAQV-NH2 [SEQ ID NO: 1]
half-life / h: 37.7

====

Procedure details: Pharmacokinetics in Cynomolgus monkeys, single subcutaneous or intravenous dose
Type: in vivo
Condition info: both sexes, cynomolgus monkey, plasma, iv, 190 nmol/kg, single intravenous dose 190 nmol/kg, Mean
*1 amine or outer side, *2 acyl side, *3 side chain or, on linkers, in order; H or OH if unused. [ ]: non-standard residue; d: D form. The star is where a group is joined. C20 diacid = O=C(O)CCCCCCCCCCCCCCCCCCC(=O)*; γGlu = O=C(O)[C@H](CCC(=O)[*:2])N[*:1]; εLys = N[C@@H](CCCCN[*:1])C(=O)[*:2]; αMeL = CC(C)C[C@](C)(N)C(=O)O; AEEA = NCCOCCOCC(=O)O; Aib = CC(C)(N)C(=O)O

Substance: {C20 diacid-εLys-AEEA-γGlu}-GSPSIVTS[αMeL]DVPT[Aib][αMeL]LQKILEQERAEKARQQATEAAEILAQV-NH2 [SEQ ID NO: 25]
half-life: 113 h

// provenance: patent US20250163119A1
